Target: KRAS G12S (Homo sapiens, UniProt P01116+P62937, G12S)
Sequence (P01116 1-169 isoform P01116-2 G12S limits assumed, one chain of several): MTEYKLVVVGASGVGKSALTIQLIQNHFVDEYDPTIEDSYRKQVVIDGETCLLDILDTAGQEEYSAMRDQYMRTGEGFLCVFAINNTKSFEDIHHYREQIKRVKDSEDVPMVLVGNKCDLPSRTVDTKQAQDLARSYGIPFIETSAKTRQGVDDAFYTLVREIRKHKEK
Test: Ras-Raf disruption / FRET / MOA assay (BRAF RBD)
Format: biochemical
Conditions: Ras-Raf disruption, with Cyclophilin A; read-out: KRAS G12S FRET data IC50
Text: Disruption of […] Ras-binding Domain (BRAF^RBD) Interaction with K-Ras by Compounds of the Invention (also Called a FRET Assay or an MOA Assay) Note—The following protocol describes a procedure for monitoring disruption of K-Ras G12C (GMP-PNP) binding to BRAF^RBD by a compound of the invention. This protocol may also be executed substituting other Ras proteins or nucleotides, such as K-Ras G12D and K-Ras G13D. […]
measure: IC50

Consider the reported IC50 for these molecules:
molecule	IC50
CCn1c(-c2cccnc2[C@H](C)OC)c2c3cc(ccc31)-c1cc(O)cc(c1)C[C@H](NC(=O)[C@H](C(C)C)N(C)C(=O)N1CC[C@@H](N(C)C(=O)[C@H]3CN3)C1)C(=O)N1CCC[C@H](N1)C(=O)OCC(C)(C)C2 (atropisomer, axis not shown)	100 to 1000 nM
CCn1c(-c2cccnc2[C@H](C)OC)c2c3cc(ccc31)-c1csc(n1)C[C@H](NC(=O)[C@H](C(C)C)N(C)C(=O)N(C)C1CN(C(=O)[C@H]3CN3)C1)C(=O)N1CCC[C@H](N1)C(=O)OCC(C)(C)C2	100 to 1000 nM
CCn1c(-c2cccnc2[C@H](C)OC)c2c3cc(ccc31)-c1csc(n1)C[C@H](NC(=O)[C@H](C(C)C)N(C)C(=O)N1CCN(C(=O)[C@@H]3CN3)[C@H](C)C1)C(=O)N1CCC[C@H](N1)C(=O)OCC(C)(C)C2	100 to 1000 nM
CCn1c(-c2cccnc2[C@H](C)OC)c2c3cc(ccc31)-c1cccc(c1)C[C@H](NC(=O)[C@H](C1CCCC1)N1CC[C@]3(CCN(C(=O)[C@@H]4N[C@@H]4C4CC4)C3)C1=O)C(=O)N1CCC[C@H](N1)C(=O)OCC(C)(C)C2	1000 to 10000 nM
CCn1c(-c2cccnc2[C@H](C)OC)c2c3cc(ccc31)-c1cc(O)cc(c1)C[C@H](NC(=O)[C@H](C(C)C)N(C)C(=O)[C@H]1CCN(C(=O)[C@H]3CN3)C1)C(=O)N1CCC[C@H](N1)C(=O)OCC(C)(C)C2 (single isomer, unassigned) [Example 43B]	1000 to 10000 nM

Please state, for each entry, its recorded IC50.
1. CCOC(=O)[C@H]1O[C@@H]1C(=O)N1CC[C@H](C(=O)N(C)[C@H](C(=O)N[C@H]2Cc3cc(O)cc(c3)-c3ccc4c(c3)c(c(-c3cccnc3[C@H](C)OC)n4CC)CC(C)(C)COC(=O)[C@@H]3CCCN(N3)C2=O)C(C)C)C1
2. CCn1c(-c2cccnc2[C@H](C)OC)c2c3cc(ccc31)-c1cccc(c1)C[C@H](NC(=O)[C@H](C(C)C)N(C)C(=O)[C@H]1CC[C@H](N=C=NC34CC(C3)C4)C1)C(=O)N1CCC[C@H](N1)C(=O)OCC(C)(C)C2
3. CCn1c(-c2cccnc2[C@H](C)OC)c2c3cc(ccc31)-c1cc(O)cc(c1)C[C@H](NC(=O)[C@H](C(C)C)N(C)C(=O)[C@H]1C[C@@H]3N[C@@H]3C1)C(=O)N1CCC[C@H](N1)C(=O)OCC(C)(C)C2 (atropisomer, axis not shown)

Found:
10 to 100 nM
> 10000 nM
100 to 1000 nM

----------
Target: KRAS G12V (Homo sapiens, UniProt P01116+P62937, G12V)
Sequence (P01116 1-169 isoform P01116-2 G12V limits assumed): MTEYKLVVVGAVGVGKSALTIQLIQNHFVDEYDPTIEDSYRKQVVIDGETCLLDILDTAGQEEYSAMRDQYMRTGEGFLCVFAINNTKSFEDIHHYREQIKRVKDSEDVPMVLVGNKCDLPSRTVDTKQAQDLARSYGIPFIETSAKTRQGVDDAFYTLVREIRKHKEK
Sequence (P62937 whole entry): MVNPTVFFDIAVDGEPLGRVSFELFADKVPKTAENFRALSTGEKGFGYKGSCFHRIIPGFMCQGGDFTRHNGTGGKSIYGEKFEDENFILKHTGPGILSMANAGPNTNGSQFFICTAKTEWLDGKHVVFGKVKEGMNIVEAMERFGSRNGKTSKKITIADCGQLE
Assay: Disruption of BRAF RBD interaction with Ras (FRET / MOA assay, with Cyclophilin A)
Type: biochemical
Settings: KRAS G12V; read-out: KRAS G12V FRET data IC50
pIC50: −log10 of the molar value.
So I've got a bunch of compounds here, and I need their pIC50 values.

compound	experimental_target	measure	result_value
CCn1c(-c2cc(N3CCN(C)CC3)cnc2[C@H](C)OC)c2c3cc(ccc31)-c1csc(n1)C[C@H](NC(=O)[C@H](C(C)C)N(C)C(=O)[C@H]1CCNC1=O)C(=O)N1CCC[C@H](N1)C(=O)OCC(C)(C)C2 (single isomer, unassigned)	KRAS G12V (Homo sapiens, UniProt P01116+P62937, G12V)	pIC50	5.00 to 6.00

Attention now turns to another entry.
Lookup: Return value of pIC50 for input `CCn1c(-c2ccccc2CCOC)c2c3cc(ccc31)-c1cc(O)cc(c1)C[C@H](NC(=O)[C@H](C(C)C)N(C)C(=O)C1CCN(C(=O)/C=C/CN(C)C)CC1)C(=O)N1CCC[C@H](N1)C(=O)OCC(C)(C)C2` , no commentary.
Found: < 5.00

----------
Target: KRAS G12D (Homo sapiens, UniProt P01116+P62937, G12D)
Sequence (P01116 1-169 isoform P01116-2 G12D limits assumed, one chain of several): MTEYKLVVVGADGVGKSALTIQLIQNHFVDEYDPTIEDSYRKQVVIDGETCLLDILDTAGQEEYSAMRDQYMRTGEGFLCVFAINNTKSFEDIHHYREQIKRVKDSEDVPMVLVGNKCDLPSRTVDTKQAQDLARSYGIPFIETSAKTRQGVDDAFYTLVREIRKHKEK
Test: Ras-Raf disruption / FRET / MOA assay (BRAF RBD)
Assay type: biochemical
Conditions: Ras-Raf disruption, with Cyclophilin A; read-out: KRAS G12D FRET data IC50
measure: IC50

Consider the reported IC50 for these molecules:
molecule	IC50
CCn1c(-c2cccnc2[C@H](C)OC)c2c3cc(ccc31)-c1cc(O)cc(c1)C[C@H](NC(=O)[C@H](C(C)C)N(C)C(=O)[C@@H]1CCN(C(=O)[C@@H]3CN3)C1)C(=O)N1CCC[C@H](N1)C(=O)OCC(C)(C)C2	100 to 1000 nM
CCn1c(-c2cccnc2[C@H](C)OC)c2c3cc(ccc31)-c1cc(O)cc(c1)C[C@H](NC(=O)[C@H](C(C)C)N(C)C(=O)[C@@]1(F)CCN(C(=O)[C@@H]3CN3)C1)C(=O)N1CCC[C@H](N1)C(=O)OCC(C)(C)C2 (atropisomer, axis not shown)	100 to 1000 nM
CCn1c(-c2cccnc2[C@H](C)OC)c2c3cc(ccc31)-c1cc(O)cc(c1)C[C@H](NC(=O)[C@H](C(C)C)N(C)C(=O)[C@H]1CCN(C(=O)[C@@H]3N[C@@H]3C3CC3)C1)C(=O)N1CCC[C@H](N1)C(=O)OCC(C)(C)C2 (atropisomer, axis not shown)	10 to 100 nM
CCn1c(-c2cnccc2COC)c2c3cc(ccc31)-c1cccc(c1)C[C@H](NC(=O)[C@H](C(C)C)N(C)C(=O)CCN=C=Nc1ccccc1OC)C(=O)N1CCC[C@H](N1)C(=O)OCC(C)(C)C2	> 10000 nM
CCn1c(-c2cccnc2[C@H](C)OC)c2c3cc(ccc31)-c1cc(O)cc(c1)C[C@H](NC(=O)[C@H](C(C)C)N(C)C(=O)c1nc(NC(=O)[C@H]3CN3)cs1)C(=O)N1CCC[C@H](N1)C(=O)OCC(C)(C)C2 (atropisomer, axis not shown)	1000 to 10000 nM
CCn1c(-c2cccnc2[C@H](C)OC)c2c3cc(ccc31)-c1cc(O)cc(c1)C[C@H](NC(=O)[C@H](C(C)C)N1CC[C@]3(CCN(C(=O)[C@H]4CN4)C3)C1=O)C(=O)N1CCC[C@H](N1)C(=O)OCC(C)(C)C2	10 to 100 nM
CCn1c(-c2cccnc2[C@H](C)OC)c2c3cc(ccc31)-c1cc(O)cc(c1)C[C@H](NC(=O)[C@H](C(C)C)N1CC[C@@]3(CCN(C(=O)[C@H]4CN4)C3)C1=O)C(=O)N1CCC[C@H](N1)C(=O)OCC(C)(C)C2	100 to 1000 nM

Attention now turns to another entry.
Lookup: Return value of IC50 for input CCn1c(-c2cccnc2[C@H](C)OC)c2c3cc(ccc31)-c1cc(O)cc(c1)C[C@H](NC(=O)[C@H](C(C)C)N(C)C(=O)[C@H]1CCN(C(=O)[C@H]3CN3)[C@H]1C)C(=O)N1CCC[C@H](N1)C(=O)OCC(C)(C)C2 (atropisomer, axis not shown) , no commentary.
Found: 1000 to 10000 nM

----------
Target: KRAS WT (Homo sapiens, UniProt P01116+P62937)
Sequence (P01116 1-169 isoform P01116-2 limits assumed): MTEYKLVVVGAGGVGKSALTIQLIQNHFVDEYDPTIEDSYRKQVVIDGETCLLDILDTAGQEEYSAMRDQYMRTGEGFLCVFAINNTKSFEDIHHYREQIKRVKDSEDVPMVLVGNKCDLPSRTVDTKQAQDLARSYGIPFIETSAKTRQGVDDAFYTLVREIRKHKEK
Sequence (P62937 whole entry): as the sequence (P62937 whole entry) above
Test: Disruption of BRAF RBD interaction with Ras (FRET / MOA assay, with Cyclophilin A)
Assay type: biochemical
Settings: KRAS WT; read-out: KRAS WT FRET data IC50
So I've got a bunch of compounds here, and I need their IC50 values.

smiles_repr	result_value
CCn1c(-c2cccnc2[C@H](C)OC)c2c3cc(ccc31)-c1csc(n1)C[C@H](NC(=O)[C@H](C(C)C)N(C)C(=O)N1CC[C@]13CCCNC3)C(=O)N1CCC[C@H](N1)C(=O)OCC(C)(C)C2	100 to 1000 nM

Attention now turns to another entry.
Lookup: Return value of IC50 for input `C=CC(=O)N1CC[C@H](C(=O)N(C)[C@H](C(=O)N[C@H]2Cc3cc(O)cc(c3)-c3ccc4c(c3)c(c(-c3ccc5cc(CN(C)C)n(C)c5c3)n4CC)CC(C)(C)COC(=O)[C@@H]3CCCN(N3)C2=O)C(C)C)C1` , no commentary.
Found: 1000 to 10000 nM
